- testedOn: ProLink tagged human CXCR4 (C2C12 CXCR4 β-Arrestin cell line) (human, UniProt P61073 1-352)
- Sequence (P61073 whole entry): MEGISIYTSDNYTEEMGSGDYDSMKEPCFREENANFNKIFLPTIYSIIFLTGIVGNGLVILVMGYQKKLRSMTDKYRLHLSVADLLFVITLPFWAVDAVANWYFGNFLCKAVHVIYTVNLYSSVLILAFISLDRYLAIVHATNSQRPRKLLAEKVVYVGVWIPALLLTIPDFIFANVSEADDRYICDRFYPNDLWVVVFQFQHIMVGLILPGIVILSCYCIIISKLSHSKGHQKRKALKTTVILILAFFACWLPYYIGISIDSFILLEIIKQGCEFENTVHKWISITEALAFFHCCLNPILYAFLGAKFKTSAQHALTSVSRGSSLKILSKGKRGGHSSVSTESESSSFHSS
- assayText: cell-based or functional assay
Square brackets hold non-standard residues; d marks the D form. Ends that are not written are not given here.
Task for the reader: assign each of the following binders its reported IC50 for Inhibition of CXCR4 Activation (β-Arrestin recruitment).

Please report IC50 for Inhibition of CXCR4 Activation (β-Arrestin recruitment) for the following binder: LREYHHSVRSSLRPYTK [SEQ ID NO: 31]
> 1000 nM

Please report IC50 for Inhibition of CXCR4 Activation (β-Arrestin recruitment) for the following binder: LRDYHHS[dA]RSSLRPYTK [SEQ ID NO: 37]
> 1000 nM

Please report IC50 for Inhibition of CXCR4 Activation (β-Arrestin recruitment) for the following binder: HHSVRSSLRPYTK [SEQ ID NO: 13]
> 1000 nM
